Taken from paper PMC10397247.

# test target: T1, 4H3638-bH
# T1 chain: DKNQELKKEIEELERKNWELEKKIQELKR
# experiment summary: two-hybrid library CCNG1;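 further: natural log of median RNA to DNA barcode read ratio; higher means stronger binding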
Mark T for reported interaction score of -1 or greater; mark F for anything smaller.

Solved entries:
Entry DENQELEKKNEELERKIWELKKEIQELER [4H1449-bH] : is its interaction score no less than -1?
T

Entry DKNQELEKEIEELERKNWELKKEIQELER [4H3129-bH] : is its interaction score no less than -1?
F

Entry DKNQELKKEIEELERKNWELEKKIQELKR [4H3638-bH] : is its interaction score no less than -1?
F

Entry DENQELKKEIEELKRENWELKKKIQELER [4H1629-bH] : is its interaction score no less than -1?
F

***
Entry DENQELEKKIEELKRKNWELEKEIQELER [4H1393-bH] : is its interaction score no less than -1?
T

Entry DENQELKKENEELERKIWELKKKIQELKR [4H1710-bH] : is its interaction score no less than -1?
T
